assay.system: SP1 (UniProt P08047 1-785)
Sequence (P08047 whole entry): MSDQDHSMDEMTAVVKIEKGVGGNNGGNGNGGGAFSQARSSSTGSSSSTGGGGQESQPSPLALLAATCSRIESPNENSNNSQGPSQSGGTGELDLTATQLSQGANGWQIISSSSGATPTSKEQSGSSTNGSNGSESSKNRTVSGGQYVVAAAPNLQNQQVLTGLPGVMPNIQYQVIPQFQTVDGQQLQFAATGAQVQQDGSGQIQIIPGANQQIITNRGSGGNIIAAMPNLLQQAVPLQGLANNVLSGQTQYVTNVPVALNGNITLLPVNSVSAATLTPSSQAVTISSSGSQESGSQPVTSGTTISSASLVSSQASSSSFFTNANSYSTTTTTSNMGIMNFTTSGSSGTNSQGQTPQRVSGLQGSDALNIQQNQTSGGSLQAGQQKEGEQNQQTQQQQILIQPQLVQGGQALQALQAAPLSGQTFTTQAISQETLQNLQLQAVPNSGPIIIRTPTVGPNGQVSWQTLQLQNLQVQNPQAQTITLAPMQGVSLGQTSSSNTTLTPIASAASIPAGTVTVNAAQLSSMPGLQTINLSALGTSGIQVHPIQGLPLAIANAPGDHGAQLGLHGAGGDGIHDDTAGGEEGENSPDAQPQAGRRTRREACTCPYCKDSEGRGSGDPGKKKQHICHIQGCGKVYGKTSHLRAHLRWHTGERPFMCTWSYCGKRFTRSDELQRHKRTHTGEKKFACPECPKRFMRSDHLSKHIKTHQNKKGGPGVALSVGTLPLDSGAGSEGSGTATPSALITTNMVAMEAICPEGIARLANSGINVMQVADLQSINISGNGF
test: EMSA; annealed in 100 mM KCl; Hill 4.42; EMSA: 10 mM HEPES-NaOH pH 7.3, 50 mM KCl, 5 mM MgCl2, 0.5 mM DTT, 5% glycerol, 0.5 mg/mL BSA, 1 h, gel at 4 C; BLI: PBS, room temperature; oligos annealed in 10 mM Tris-HCl pH 7.5 +/- 100 mM KCl
run.parameters: protein: commercial; label: 5' biotin (BLI); G4, parallel, intra- and intermolecular
readout.type: Kd (nM)
A number alone suffices; assume nM.

Give its Kd value. Item: GGGGGCCGGGGGCGGGGAGGCGGG (structured_DNA) [Bcl3 WT 24-nt, annealed with KCl (G4)]
19.1
